Measured Ki by item
Target: Phenylethanolamine N-methyltransferase (Bos taurus)
Sequence (P10938 whole entry): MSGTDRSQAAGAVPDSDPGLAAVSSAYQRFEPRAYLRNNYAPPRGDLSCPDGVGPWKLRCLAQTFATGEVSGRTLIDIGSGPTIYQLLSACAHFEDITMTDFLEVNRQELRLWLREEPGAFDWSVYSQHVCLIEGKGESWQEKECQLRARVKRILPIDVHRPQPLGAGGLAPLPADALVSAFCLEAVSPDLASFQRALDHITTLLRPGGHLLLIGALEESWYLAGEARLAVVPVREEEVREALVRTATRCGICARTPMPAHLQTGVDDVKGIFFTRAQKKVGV
result-type: Ki (nM)

C[C@@H]1Cc2ccccc2CN1: 1000
FC[C@@H]1Cc2ccccc2CN1: 9900
FC[C@H]1Cc2ccc(Br)cc2CN1: 510
O=[N+]([O-])c1ccc2c(c1)CN[C@H](CCl)C2: 660

meta.source: ChEMBL document CHEMBL1132448
